// pEC50 lookup, one value per entry
Test system: A2780 ovarian cancer cells
METHOD: Cellular proliferation in A2780 cells, Cell Titer Glo (Biological Method 4)
Type: cell-based
CONDITION: Homo sapiens; ovarian cancer cell line A2780
pEC50: −log10 of the molar value.
RECORDED_METRIC: pEC50

1. Cc1cc(Nc2cc(-c3cnc(N)cc3C(F)(F)F)nc(N3CCOCC3)n2)ccn1; > 6.00
2. Nc1ncc(-c2cc(-c3cccnc3)nc(N3CCOCC3)n2)cn1; > 6.00
3. Nc1ncc(-c2cc(O[C@H]3CCOC3)nc(N3CCOCC3)n2)c(=O)[nH]1; > 6.00
4. Nc1ncc(-c2cc(N3CCOCC3)nc(N3CCOCC3)n2)c(C(F)(F)F)n1; > 6.00
5. Nc1ncc(-c2cc(NCC3CCCCC3)nc(N3CCOCC3)n2)cn1; > 4.60
6. CN1CCC(Oc2ccc(Nc3cc(-c4cnc(N)nc4)nc(N4CCOCC4)n3)cn2)CC1; > 6.00
7. N#Cc1cnc(Nc2cc(-c3cnc(N)cc3C(F)(F)F)nc(N3CCOCC3)n2)s1; > 5.00
8. Nc1ncc(-c2cc(-c3cnc(N)nc3C(F)(F)F)nc(N3CCOCC3)n2)c(C(F)(F)F)n1; > 6.00
9. Nc1ncc(-c2nc(N3CCOCC3)ncc2C(=O)N2CCNC(=O)C2)cn1; > 4.60
10. Nc1ccc(-c2cc(Nc3ccccc3F)nc(N3CCOCC3)n2)cn1; > 5.00
11. CC(C)(C)OC(=O)N1CCC(Oc2cc(-c3cnc(N)cc3C(F)(F)F)nc(N3CCOCC3)n2)CC1; > 5.00
12. Nc1cc(Cl)c(-c2cc(Nc3cnc4ccccc4c3)nc(N3CCOCC3)n2)cn1; > 6.00
13. COc1ccc2ncc(Nc3nc(N4CCOCC4)nc(-c4cnc(N)nc4)c3C)cc2c1; > 6.00
14. CC(C)C(=O)N1CCC[C@@H](Oc2cc(-c3cnc(N)nc3N)nc(N3CCOCC3)n2)C1; > 5.00
15. CC(C)OC(=O)N1CCC(Oc2cc(-c3cnc(N)nc3C(F)(F)F)nc(N3CCOCC3)n2)CC1; > 5.00
16. N#Cc1ccccc1Nc1cc(-c2ccc(N)nc2)nc(N2CCOCC2)n1; > 5.00
17. Nc1cc(C(F)(F)F)c(-c2cc(Nc3ccncc3)nc(N3CCOCC3)n2)cn1; > 4.60
18. N#Cc1cc(N)ncc1-c1cc(-c2cccnc2F)nc(N2CCOCC2)n1; > 4.60
19. CN1CCC(Oc2ccc(Nc3cc(-c4cnc(N)nc4C(F)(F)F)nc(N4CCOCC4)n3)cn2)CC1; > 6.00
20. Nc1ccc(-c2cc(-c3cccnc3NCCO)nc(N3CCOCC3)n2)cn1; > 5.00
21. CC(C)N1CCC(Oc2ccc(Nc3cc(-c4cnc(N)nc4N)nc(N4CCOCC4)n3)cn2)CC1; > 6.00
22. Nc1ncc(-c2cc(NC3CCCCC3)nc(N3CCOCC3)n2)cn1; > 5.00
23. Nc1ncc(-c2cc(C(F)(F)F)nc(N3CCOCC3)n2)cn1; > 5.00
24. COc1ccc(Nc2cc(-c3ccc(N)nc3)nc(N3CCOCC3)n2)cc1; > 5.00
25. Nc1cc(C(F)(F)F)c(-c2cc(N3CCN(c4ccccc4)C3=O)nc(N3CCOCC3)n2)cn1; > 6.00
26. CC(C)N1CCC(Oc2cncc(-c3cc(-c4cnc(N)cc4C(F)(F)F)nc(N4CCOCC4)n3)c2)C1 (stereo not shown); > 5.00
27. Nc1ncc(-c2cc(N3CCOC(c4ccccc4)C3)nc(N3CCOCC3)n2)cn1 (stereo not shown); > 6.00
28. Cc1c(Cl)nc(N2CCOCC2)nc1-c1cnc(N)nc1; > 4.60
29. Nc1ncc(-c2cc(Nc3ccc4nccnc4c3)nc(N3CCOCC3)n2)cn1; > 6.00
30. CC(=O)N1CCC[C@@H](Oc2cc(-c3cnc(N)nc3N)nc(N3CCOCC3)n2)C1; > 6.00
31. Cc1c(Nc2ccc(OC3CCN(C)CC3)nc2)nc(N2CCOCC2)nc1-c1cnc(N)nc1; > 6.00
32. Nc1ncc(-c2cc(Cl)nc(N3CCOCC3)n2)cn1; > 5.00
33. Nc1ncc(-c2cc(Nc3ccncc3)nc(N3CCOCC3)n2)c(C(F)(F)F)n1; > 6.00
34. Nc1cc(C(F)(F)F)c(-c2cc(N3CCOCC3)nc(N3CCOCC3)n2)cn1; > 6.00
